Sourced from ChEMBL document CHEMBL4689842

We begin with a simple list: items and their reported Population Mitotic Cells (%).
Tested on: U2OS
Assay: Multiplex assay against U2OS
Type: toxicity, cell-based
Conditions: human, 12 h, 10 µM, compound concentration 10 uM, replicate 1
Form entry: value (%) — number only.

Past entries and their recorded results:
>>> numeric_value("Cl.O=c1c2cccn2c2ccccc2n1CCCN1CCC(c2ccc(Cl)cc2)CC1")
18
>>> numeric_value("Cc1cn(-c2cc(NC(=O)c3ccc(C)c(Nc4nccc(-c5cccnc5)n4)c3)cc(C(F)(F)F)c2)cn1 [NILOTINIB]")
13
>>> numeric_value("O=C1N/C(=N/c2ccccc2F)S/C1=C\\c1ccc(C(=O)O)cc1")
75

For this molecule ( COc1ccc(-c2ccc3c(N4CCOCC4)nc(N4C[C@@H](C)O[C@@H](C)C4)nc3n2)cc1CO [Ku-0063794] ), measured Population Mitotic Cells (%) is 30

For this molecule ( O=C(Nc1cccnn1)N1CCC(=Cc2cccc(Oc3ccc(C(F)(F)F)cn3)c2)CC1 ), measured Population Mitotic Cells (%) is 16

For this molecule ( C=CCn1c(=O)c2cnc(Nc3ccc(N4CCN(C)CC4)cc3)nc2n1-c1cccc(C(C)(C)O)n1 [ADAVOSERTIB] ), measured Population Mitotic Cells (%) is 59

For this molecule ( CCCS(=O)(=O)c1nc(NC2CC2)cc(-c2ccc3c(ccn3C3CC(C)(C)NC(C)(C)C3)c2)n1 ), measured Population Mitotic Cells (%) is 13

For this molecule ( CNC(=O)c1ccc(Nc2nc(OC3CCCC3)c3c(-c4ccc5nc(C)oc5c4)c[nH]c3n2)c(OC)c1 ), measured Population Mitotic Cells (%) is 70
